Assay: In vivo pharmacokinetics, plasma and forebrain levels by LC-MS/MS
Parameters: species or system mice
Conditions: mouse, plasma and forebrain, intraperitoneal and oral; mice, ip and po; first order exponential decay; read-out: In vivo t1/2 for brain and plasma
measurementType: half-life

I have this compound here, CC1CCN(Cc2no[n+]([O-])c2-c2ccc(F)cc2)CC1 [31b] , and I need its recorded half-life. 50 to 110 min

---

Test: In vivo pharmacokinetics, plasma and forebrain levels by LC-MS/MS
Parameters: species or system mice
Conditions: mouse, forebrain versus plasma, other: intraperitoneal (ip) and oral (po), averaged together; mice; read-out: Average B:P ratio (brain versus plasma)
measurementType: Kp
Give a plain numeric answer without units written out.

I have this molecule here, CC1CCN(Cc2no[n+]([O-])c2-c2ccc(F)cc2)CC1 [31b] , and I need its recorded Kp. 1.6
